Each item that follows carries a reported IC50.
- Target under test: KRAS G12C (Homo sapiens (Human), UniProt P01116+P62937, G12C)
- Sequence (P01116-2 other isoform, or with tags, fused parts or gaps G12C, one chain of several): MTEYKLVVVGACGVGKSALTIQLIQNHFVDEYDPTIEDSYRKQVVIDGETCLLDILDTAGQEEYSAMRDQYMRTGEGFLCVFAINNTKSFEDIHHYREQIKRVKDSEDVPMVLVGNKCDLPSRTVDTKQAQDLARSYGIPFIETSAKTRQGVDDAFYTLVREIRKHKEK
- Assay method text: Ras-Raf disruption/FRET/MOA assay (BRAF RBD, Cyclophilin A)
- Assay type: biochemical
- Assay setup: read-out: KRAS G12C FRET IC50

# Chemical string, IC50
rows = [
    ("CCn1c(-c2cccnc2[C@H](C)OC)c2c3cc(ccc31)-c1csc(n1)C[C@H](NC(=O)[C@H](C(C)C)N(C)C(=O)[C@@H]1OCC[C@@H]1c1ccccc1)C(=O)N1CCC[C@H](N1)C(=O)OCC(C)(C)C2", "100 to 1000 nM"),
    ("CCn1c(-c2cccnc2[C@H](C)OC)c2c3cc(ccc31)-c1cc(O)cc(c1)C[C@H](NC(=O)[C@H](C(C)C)N(C)C(=O)[C@@H]1C[C@@H]1C)C(=O)N1CCC[C@H](N1)C(=O)OCC(C)(C)C2", "10 to 100 nM"),
    ("CCn1c(-c2cccnc2[C@H](C)OC)c2c3cc(ccc31)-c1csc(n1)C[C@H](NC(=O)[C@H](C(C)C)N(C)C(=O)N(C)[C@@H]1CCN(C)C1)C(=O)N1CCC[C@H](N1)C(=O)OCC(C)(C)C2", "100 to 1000 nM"),
    ("CCn1c(-c2cccnc2[C@H](C)OC)c2c3cc(ccc31)-c1cc(O)cc(c1)C[C@H](NC(=O)[C@H](C(C)C)N(C)C(=O)[C@H]1C[C@@H]1F)C(=O)N1CCC[C@H](N1)C(=O)OCC(C)(C)C2", "100 to 1000 nM"),
]

---

- Target under test: NRAS WT binding to BRAF RBD (Homo sapiens (Human), UniProt P01111+P62937)
- Sequence (P01111 whole entry): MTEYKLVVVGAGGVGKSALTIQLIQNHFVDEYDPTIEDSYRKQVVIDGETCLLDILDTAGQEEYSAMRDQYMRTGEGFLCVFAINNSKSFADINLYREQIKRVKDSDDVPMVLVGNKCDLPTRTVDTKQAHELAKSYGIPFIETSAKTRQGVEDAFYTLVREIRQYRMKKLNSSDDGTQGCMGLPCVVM
- Sequence (P62937 whole entry): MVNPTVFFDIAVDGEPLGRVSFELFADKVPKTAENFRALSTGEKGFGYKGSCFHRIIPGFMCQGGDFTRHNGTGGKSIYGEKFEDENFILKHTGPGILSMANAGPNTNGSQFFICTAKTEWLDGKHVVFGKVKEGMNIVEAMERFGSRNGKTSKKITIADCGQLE
- Assay method text: Ras-Raf disruption/FRET/MOA assay, NRAS WT
- Type: biochemical
pIC50: −log10 of the molar value.

# Molecule, Target under test, pIC50
measured = [
    ("CCn1c(-c2cncnc2)c2c3cc(ccc31)-c1csc(n1)C[C@H](NC(=O)[C@H](C(C)C)N(C)C(=O)[C@H]1CCN(S(=O)(=O)CC)C1)C(=O)N1CCC[C@H](N1)C(=O)OCC(C)(C)C2", "NRAS WT binding to BRAF RBD (Homo sapiens (Human), UniProt P01111+P62937)", "< 5.00"),
    ("CCn1c(-c2cccnc2[C@H](C)OC)c2c3cc(ccc31)-c1csc(n1)C[C@H](NC(=O)[C@H](C(C)C)N(C)C(=O)C1CCN(C(=O)/C=C/CN(C)C)C[C@@H]1C)C(=O)N1CCC[C@H](N1)C(=O)OCC(C)(C)C2 (some centres unmarked)", "NRAS WT binding to BRAF RBD (Homo sapiens (Human), UniProt P01111+P62937)", "7.00 to 8.00"),
    ("C=CC(=O)N1CC[C@]2(C1)OCN([C@H](C(=O)N[C@H]1Cc3cc(cc(C(F)(F)F)c3)-c3ccc4c(c3)c(c(-c3cccnc3[C@H](C)OC)n4CC)CC(C)(C)COC(=O)[C@@H]3CCCN(N3)C1=O)C(C)C)C2=O", "NRAS WT binding to BRAF RBD (Homo sapiens (Human), UniProt P01111+P62937)", "6.00 to 7.00"),
    ("C=C(C)C(=O)N1CC(N(C)C(=O)N(C)[C@H](C(=O)N[C@H]2Cc3nc(cs3)-c3ccc4c(c3)c(c(-c3cccnc3[C@H](C)OC)n4CC)CC(C)(C)COC(=O)[C@@H]3CCCN(N3)C2=O)C(C)C)C1", "NRAS WT binding to BRAF RBD (Homo sapiens (Human), UniProt P01111+P62937)", "5.00 to 6.00"),
    ("C=CC(=O)N1CC[C@H](C(=O)C2CC[C@H](C)[C@H]2C(=O)N[C@H]2Cc3cccc(c3)-c3ccc4c(c3)c(c(-c3cccnc3[C@H](C)OC)n4CC)CC(C)(C)COC(=O)[C@@H]3CCCN(N3)C2=O)C1 (some centres unmarked)", "NRAS WT binding to BRAF RBD (Homo sapiens (Human), UniProt P01111+P62937)", "5.00 to 6.00"),
]

---

Each item that follows carries a reported pIC50.
- Target under test: KRAS G12C (Homo sapiens (Human), UniProt P01116+P62937, G12C)
- Assay method text: Ras-Raf disruption/FRET/MOA assay (BRAF RBD, Cyclophilin A)
- Assay type: biochemical
- Assay setup: read-out: KRAS G12C FRET IC50
pIC50: −log10 of the molar value.

# Chemical string, pIC50
rows = [
    ("CCn1c(-c2cccnc2[C@H](C)OC)c2c3cc(ccc31)-c1csc(n1)C[C@H](NC(=O)[C@H](C(C)C)N(C)C(=O)N1CCC[C@H](N(C)C)C1)C(=O)N1CCC[C@H](N1)C(=O)OCC(C)(C)C2", "7.00 to 8.00"),
    ("CCn1c(-c2cccnc2[C@H](C)OC)c2c3cc(ccc31)-c1csc(n1)C[C@H](NC(=O)[C@H](C(C)C)N(C)C(=O)N(C)CCc1ccncc1)C(=O)N1CCC[C@H](N1)C(=O)OCC(C)(C)C2", "7.00 to 8.00"),
    ("CCn1c(-c2cccnc2[C@H](C)OC)c2c3cc(ccc31)-c1cc(O)cc(c1)C[C@H](NC(=O)[C@H](C(C)C)N(C)C(=O)[C@H]1[C@@H]3CNC[C@@H]31)C(=O)N1CCC[C@H](N1)C(=O)OCC(C)(C)C2", "6.00 to 7.00"),
    ("CCn1c(-c2cccnc2[C@H](C)OC)c2c3cc(ccc31)-c1csc(n1)C[C@H](NC(=O)[C@H](C(C)C)N(C)C(=O)N1C[C@@H]3OCCN(C)[C@H]3C1)C(=O)N1CCC[C@H](N1)C(=O)OCC(C)(C)C2", "6.00 to 7.00"),
]

---

Each item that follows carries a reported pIC50.
- Target under test: KRAS G12D (Homo sapiens (Human), UniProt P01116+P62937, G12D)
- Sequence (P01116 other isoform, or with tags, fused parts or gaps G12D): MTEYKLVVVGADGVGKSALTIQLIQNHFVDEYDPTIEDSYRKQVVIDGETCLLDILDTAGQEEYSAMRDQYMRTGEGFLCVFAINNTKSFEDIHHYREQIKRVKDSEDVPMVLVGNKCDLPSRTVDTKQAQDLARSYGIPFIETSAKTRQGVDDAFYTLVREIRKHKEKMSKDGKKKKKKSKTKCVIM
- Sequence (P62937 whole entry): as the sequence (P62937 whole entry) above
- Assay method text: Ras-Raf disruption/FRET/MOA assay (BRAF RBD, Cyclophilin A)
- Assay type: biochemical
- Assay setup: read-out: KRAS G12D FRET IC50
pIC50: −log10 of the molar value.

# Molecule, Target under test, pIC50
data = [
    ("CCn1c(-c2cccnc2[C@H](C)OC)c2c3cc(ccc31)-c1csc(n1)C[C@H](NC(=O)[C@H](C(C)C)N(C)C(=O)N1CC([C@@H](C)OC)C1)C(=O)N1CCC[C@H](N1)C(=O)OCC(C)(C)C2", "KRAS G12D (Homo sapiens (Human), UniProt P01116+P62937, G12D)", "6.00 to 7.00"),
    ("CCn1c(-c2cccnc2[C@H](C)OC)c2c3cc(ccc31)-c1csc(n1)C[C@H](NC(=O)[C@H](C(C)C)N(C)C(=O)N1CCO[C@@]3(CCN(C)C3)C1)C(=O)N1CCC[C@H](N1)C(=O)OCC(C)(C)C2", "KRAS G12D (Homo sapiens (Human), UniProt P01116+P62937, G12D)", "6.00 to 7.00"),
    ("CCn1c(-c2cccnc2[C@H](C)OC)c2c3cc(ccc31)-c1cc(O)cc(c1)C[C@H](NC(=O)[C@H](C(C)C)N(C)C(=O)[C@H]1CCCC[C@H]1N)C(=O)N1CCC[C@H](N1)C(=O)OCC(C)(C)C2", "KRAS G12D (Homo sapiens (Human), UniProt P01116+P62937, G12D)", "7.00 to 8.00"),
    ("CCn1c(-c2cccnc2[C@H](C)OC)c2c3cc(ccc31)-c1cc(O)cc(c1)C[C@H](NC(=O)[C@H](C(C)C)N(C)C(=O)[C@@H]1[C@@H]3CNC[C@@H]31)C(=O)N1CCC[C@H](N1)C(=O)OCC(C)(C)C2", "KRAS G12D (Homo sapiens (Human), UniProt P01116+P62937, G12D)", "7.00 to 8.00"),
    ("CCn1c(-c2cccnc2[C@H](C)OC)c2c3cc(ccc31)-c1csc(n1)C[C@H](NC(=O)[C@H](C(C)C)N(C)C(=O)N1CCN(C)[C@@H](c3ccccc3)C1)C(=O)N1CCC[C@H](N1)C(=O)OCC(C)(C)C2", "KRAS G12D (Homo sapiens (Human), UniProt P01116+P62937, G12D)", "5.00 to 6.00"),
    ("CCn1c(-c2cccnc2[C@H](C)OC)c2c3cc(ccc31)-c1csc(n1)C[C@H](NC(=O)[C@H](C(C)C)N1C[C@@H](c3ccccc3)CC1=O)C(=O)N1CCC[C@H](N1)C(=O)OCC(C)(C)C2 (single isomer, unassigned)", "KRAS G12D (Homo sapiens (Human), UniProt P01116+P62937, G12D)", "5.00 to 6.00"),
    ("CCn1c(-c2cccnc2[C@H](C)OC)c2c3cc(ccc31)-c1csc(n1)C[C@H](NC(=O)[C@H](C(C)C)N(C)C(=O)N1CCC[C@H](N(C)C)C1)C(=O)N1CCC[C@H](N1)C(=O)OCC(C)(C)C2", "KRAS G12D (Homo sapiens (Human), UniProt P01116+P62937, G12D)", "6.00 to 7.00"),
    ("CCn1c(-c2cccnc2[C@H](C)OC)c2c3cc(ccc31)-c1csc(n1)C[C@H](NC(=O)[C@H](C(C)C)N(C)C(=O)N1C[C@H]3CCN(C)[C@H]3C1)C(=O)N1CCC[C@H](N1)C(=O)OCC(C)(C)C2", "KRAS G12D (Homo sapiens (Human), UniProt P01116+P62937, G12D)", "6.00 to 7.00"),
    ("CCn1c(-c2cnccc2COC)c2c3cc(ccc31)-c1cc(O)cc(c1)C[C@H](NC(=O)[C@@H](OC(=O)N1CCCC1)C(C)C)C(=O)N1CCC[C@H](N1)C(=O)OCC(C)(C)C2", "KRAS G12D (Homo sapiens (Human), UniProt P01116+P62937, G12D)", "< 5.00"),
]
